Values were extracted from patent US20240317858A1.

Record form. Attribute: Kd. Fill in for each entry.
assay-system: T1, Cynomolgus CD3εδ Fc heterodimer (Cy CD3ε Fc + CD3δ Fc-HIS) (cynomolgus, UniProt Q95LI5 22-117; Q95LI8 22-100)
T1 construct: range 22-117;range 22-100; Made in HEK 293 cells with a heterologous signal peptide; also called Cy CD3εδ-Fc; cyno CD3εδ Fc; not shown: Fc; Fc followed by HIS tag
T1 sequence (Q95LI5 22-117, stated change not applied, form in doubt, chain 1 of 2): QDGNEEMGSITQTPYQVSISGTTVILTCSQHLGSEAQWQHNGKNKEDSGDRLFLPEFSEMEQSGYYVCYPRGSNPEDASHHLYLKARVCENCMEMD
T1 sequence (Q95LI8 22-100, stated change not applied, form in doubt, chain 2 of 2): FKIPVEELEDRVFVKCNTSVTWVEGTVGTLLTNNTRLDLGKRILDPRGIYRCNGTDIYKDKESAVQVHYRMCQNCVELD
protocol-notes: SPR (Biacore), Fab over immobilized CD3εδ Fc, pH 6.0
Procedure: Anti-CD3 antibodies A001-A005, V002, V004, V007, V009, V010, V013, and V014-V019 were produced in CHO cells, and Fab fragments were generated from IgG1 antibodies by papain digestion and purification as described in Example 2. Monovalent binding affinity at pH 7.4 and pH 6.0 was measured via surface plasmon resonance (SPR). […]
Give bare numbers, in nM.

Here's what some known entries look like.
[
  {
    "binder": "Antibody No. V010 (ADI-70327) Fab (Fab, V domains shown, Fab by papain digestion of the IgG1) VH: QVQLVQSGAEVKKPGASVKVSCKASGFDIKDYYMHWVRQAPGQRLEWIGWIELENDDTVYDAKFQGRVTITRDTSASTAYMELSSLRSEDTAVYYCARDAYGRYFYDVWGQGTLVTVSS VL: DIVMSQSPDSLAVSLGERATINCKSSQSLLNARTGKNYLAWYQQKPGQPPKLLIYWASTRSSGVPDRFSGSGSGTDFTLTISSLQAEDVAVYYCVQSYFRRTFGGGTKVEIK",
    "result": 0.82
  },
  {
    "binder": "Antibody No. V002 (ADI-67445) Fab (Fab, V domains shown, Fab by papain digestion of the IgG1) VH: QVQLVQSGAEVKKPGASVKVSCKASGFNIKDYYMHWVRQAPGQRLEWMGWIDLENAETIYDAKFQDRVTITRDTSASTAYMELSSLRSEDTAVYYCARDAYGRYFYDEWGQGTLVTVSS VL: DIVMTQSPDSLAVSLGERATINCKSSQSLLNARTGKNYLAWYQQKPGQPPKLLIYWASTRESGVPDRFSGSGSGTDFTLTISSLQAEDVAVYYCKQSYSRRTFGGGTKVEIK",
    "result": 3.3
  }
]

Memo: Antibody No. V014 (ADI-76357) Fab (Fab, V domains shown, Fab by papain digestion of the IgG1) VH: QVQLVQSGAEVKKPGASVKVSCKASGFDIKDYYMHWVRQAPGQRLEWMGWIDLENANTIYDAKFQGRVTITRDTSASTAYMELSSLRSEDTAVYYCARDQYGRYFYDVWGQGTLVTVSS VL: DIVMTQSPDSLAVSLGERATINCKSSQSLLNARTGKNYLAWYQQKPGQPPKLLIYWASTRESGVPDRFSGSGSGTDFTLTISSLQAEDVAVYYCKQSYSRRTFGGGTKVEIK , reported Kd: 12
